target: hFASN enzyme (full length) (Homo sapiens, UniProt P49327); construct: 10 μL hFASN enzyme (full length, 300 ng, purified in house); made in house; experiment: Fatty Acid Synthase (FASN) inhibition scintillation proximity assay; type: biochemical; settings: read-out: Human FASN pIC50 (converted)
Sequence (P49327 whole entry): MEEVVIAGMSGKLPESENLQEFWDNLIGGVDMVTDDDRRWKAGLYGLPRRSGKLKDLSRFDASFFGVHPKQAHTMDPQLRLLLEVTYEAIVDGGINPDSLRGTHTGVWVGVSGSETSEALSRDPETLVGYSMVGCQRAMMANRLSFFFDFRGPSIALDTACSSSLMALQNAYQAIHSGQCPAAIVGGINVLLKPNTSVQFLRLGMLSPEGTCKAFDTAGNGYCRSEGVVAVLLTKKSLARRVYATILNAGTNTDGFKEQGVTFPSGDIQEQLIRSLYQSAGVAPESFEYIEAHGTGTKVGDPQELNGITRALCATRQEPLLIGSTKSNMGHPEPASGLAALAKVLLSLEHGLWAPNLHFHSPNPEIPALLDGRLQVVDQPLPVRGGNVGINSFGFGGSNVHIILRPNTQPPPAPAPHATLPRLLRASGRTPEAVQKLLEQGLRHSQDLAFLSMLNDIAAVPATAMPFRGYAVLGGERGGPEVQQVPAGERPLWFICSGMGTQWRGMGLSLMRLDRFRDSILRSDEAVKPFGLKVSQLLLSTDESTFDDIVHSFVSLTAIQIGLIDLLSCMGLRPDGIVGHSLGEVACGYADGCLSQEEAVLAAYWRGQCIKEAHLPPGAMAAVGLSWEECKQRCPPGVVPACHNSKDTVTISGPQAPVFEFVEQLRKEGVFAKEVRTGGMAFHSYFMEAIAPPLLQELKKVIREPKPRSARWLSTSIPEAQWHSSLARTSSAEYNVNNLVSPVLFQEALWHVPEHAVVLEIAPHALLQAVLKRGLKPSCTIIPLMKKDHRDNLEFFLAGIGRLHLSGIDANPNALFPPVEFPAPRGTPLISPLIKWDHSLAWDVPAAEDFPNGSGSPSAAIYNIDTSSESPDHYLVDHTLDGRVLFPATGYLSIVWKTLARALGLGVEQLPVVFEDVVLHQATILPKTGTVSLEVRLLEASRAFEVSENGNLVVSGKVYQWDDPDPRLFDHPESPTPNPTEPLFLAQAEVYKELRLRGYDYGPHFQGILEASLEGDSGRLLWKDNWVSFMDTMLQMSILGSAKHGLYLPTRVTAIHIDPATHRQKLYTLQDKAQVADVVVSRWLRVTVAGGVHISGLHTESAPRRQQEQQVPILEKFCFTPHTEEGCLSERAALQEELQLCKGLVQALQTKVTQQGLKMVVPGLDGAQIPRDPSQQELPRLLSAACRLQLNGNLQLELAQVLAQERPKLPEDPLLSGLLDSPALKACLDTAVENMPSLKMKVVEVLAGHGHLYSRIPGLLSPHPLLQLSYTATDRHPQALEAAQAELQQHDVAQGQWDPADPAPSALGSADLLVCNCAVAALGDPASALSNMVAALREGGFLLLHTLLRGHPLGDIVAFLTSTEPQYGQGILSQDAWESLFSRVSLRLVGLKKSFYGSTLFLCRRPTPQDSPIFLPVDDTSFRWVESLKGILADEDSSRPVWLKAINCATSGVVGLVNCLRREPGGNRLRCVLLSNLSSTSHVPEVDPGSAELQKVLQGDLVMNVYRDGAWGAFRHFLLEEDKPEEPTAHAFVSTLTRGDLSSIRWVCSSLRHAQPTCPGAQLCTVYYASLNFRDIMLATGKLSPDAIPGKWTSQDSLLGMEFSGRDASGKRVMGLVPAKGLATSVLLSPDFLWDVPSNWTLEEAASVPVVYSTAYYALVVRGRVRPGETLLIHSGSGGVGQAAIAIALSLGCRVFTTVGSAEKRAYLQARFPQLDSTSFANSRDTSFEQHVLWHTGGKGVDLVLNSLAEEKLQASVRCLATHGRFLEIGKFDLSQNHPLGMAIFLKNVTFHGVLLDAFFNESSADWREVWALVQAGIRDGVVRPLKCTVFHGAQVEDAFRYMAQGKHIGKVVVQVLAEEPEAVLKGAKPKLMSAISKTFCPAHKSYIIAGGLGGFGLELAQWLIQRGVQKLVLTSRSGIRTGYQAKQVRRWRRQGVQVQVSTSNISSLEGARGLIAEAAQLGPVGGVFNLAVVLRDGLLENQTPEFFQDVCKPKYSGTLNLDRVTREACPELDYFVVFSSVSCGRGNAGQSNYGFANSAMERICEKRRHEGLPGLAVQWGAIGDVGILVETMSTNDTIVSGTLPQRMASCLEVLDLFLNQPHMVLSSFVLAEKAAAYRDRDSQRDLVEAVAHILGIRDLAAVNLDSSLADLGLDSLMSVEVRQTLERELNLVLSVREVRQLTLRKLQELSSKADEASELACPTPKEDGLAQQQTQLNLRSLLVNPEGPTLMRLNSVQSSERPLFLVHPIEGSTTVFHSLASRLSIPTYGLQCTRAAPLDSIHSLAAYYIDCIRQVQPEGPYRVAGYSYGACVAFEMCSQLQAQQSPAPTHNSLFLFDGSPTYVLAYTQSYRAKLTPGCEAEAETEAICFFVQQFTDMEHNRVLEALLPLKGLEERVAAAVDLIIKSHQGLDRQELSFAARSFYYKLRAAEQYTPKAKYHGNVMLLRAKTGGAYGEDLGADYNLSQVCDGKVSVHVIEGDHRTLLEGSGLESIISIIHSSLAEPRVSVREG
Doc: threshold 300 nM (exclusive). Items with IC50 beneath it return Fulfilled; others return Not fulfilled.

molecule | subject.of.test | class.label
COC(=O)N1CC2(C1)N=C(c1ccc(-c3ccc4cccnc4c3)cc1)N(C[C@@H]1CCN(S(C)(=O)=O)C1)C2=O | hFASN enzyme (full length) (Homo sapiens, UniProt P49327) | Not fulfilled
O=C(C1CC1)N1CC[C@@H](CN2C(=O)C3(CC3)N=C2c2ccc(-c3cccc(OC(F)(F)F)c3)cc2)C1 | hFASN enzyme (full length) (Homo sapiens, UniProt P49327) | Not fulfilled
Cc1cc(-c2ccc3c(c2)CCO3)ccc1C1=NC2(CCCC2)C(=O)N1C[C@@H]1CCN(C(=O)C2CC2)C1 | hFASN enzyme (full length) (Homo sapiens, UniProt P49327) | Fulfilled

Say whether its IC50 is strictly beneath 300 nM. Entry: O=C(C1CC1)N1CC(CN2C(=O)C3(CCNCC3)N=C2c2ccc(-c3ccc4cnccc4c3)cc2)C1 Not fulfilled

Say whether its IC50 is strictly beneath 300 nM. Entry: Cn1cc(-c2ccc(-c3ccc(C4=NC5(CCOC5)C(=O)N4CC4CN(C(=O)c5nccs5)C4)cc3)cc2)cn1 (stereo not drawn) Not fulfilled

Say whether its IC50 is strictly beneath 300 nM. Entry: O=C(C1CC1)N1CC[C@@H](CN2C(=O)C3(CC3)N=C2c2ccc(-c3cnc4ccccc4c3)cc2F)C1 Fulfilled

Say whether its IC50 is strictly beneath 300 nM. Entry: Cc1cc(-c2nc3cc(Br)ccc3cc2C)ccc1C1=NC2(CC2)C(=O)N1CC1CN(C(=O)C2(C)CC2)C1 Not fulfilled

Say whether its IC50 is strictly beneath 300 nM. Entry: Cn1ncc2cc(-c3ccc(C4=NC5(CCN(CCO)CC5)C(=O)N4CC4CN(C(=O)C5CC5)C4)cc3)ccc21 Not fulfilled

src = patent US10077261B2
